system_under_test: PLOD1 (UniProt Q02809)
Sequence: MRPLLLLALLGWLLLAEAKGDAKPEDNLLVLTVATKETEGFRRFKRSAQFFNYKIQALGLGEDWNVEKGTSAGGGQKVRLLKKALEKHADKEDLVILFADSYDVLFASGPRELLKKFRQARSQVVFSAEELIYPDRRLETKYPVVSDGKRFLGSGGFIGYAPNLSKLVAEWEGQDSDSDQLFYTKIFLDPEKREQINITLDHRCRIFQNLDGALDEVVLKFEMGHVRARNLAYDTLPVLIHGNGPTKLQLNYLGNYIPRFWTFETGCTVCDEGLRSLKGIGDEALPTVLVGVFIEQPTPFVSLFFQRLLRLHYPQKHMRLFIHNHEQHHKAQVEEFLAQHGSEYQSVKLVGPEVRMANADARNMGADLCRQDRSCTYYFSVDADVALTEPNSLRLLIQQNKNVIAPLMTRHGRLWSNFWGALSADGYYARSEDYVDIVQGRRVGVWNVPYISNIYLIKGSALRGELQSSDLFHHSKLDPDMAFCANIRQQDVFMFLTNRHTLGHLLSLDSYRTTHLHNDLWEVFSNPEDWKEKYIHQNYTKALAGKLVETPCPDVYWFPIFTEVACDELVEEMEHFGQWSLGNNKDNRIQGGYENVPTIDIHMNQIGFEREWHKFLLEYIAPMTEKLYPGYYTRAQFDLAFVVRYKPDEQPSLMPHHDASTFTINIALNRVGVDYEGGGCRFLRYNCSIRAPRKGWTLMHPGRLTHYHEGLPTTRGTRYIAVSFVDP
assay_protocol: Kd (EC50 corrected by depletion factor)
value_kind: pKd
Conceptually, pKd converts a concentration in mol/L into minus its log10.

Ask: Report pKd for UAUUUAU please.
Reply: 5.35
